- methodDescription: protein stability index of a GFP-peptide fusion (yeast GPS) (PSI 1-4); higher = more stable; sorted into four equal gates, so the index is relative within each strain
- measurementContext: pdr5∆
measure: protein stability index
The response must contain the number and no unit.

// below: answered sequences
LPNQIPGEYITTIKAIF [YMR129W/POM152]    2.51
ILTEHLGYPPISLVDDI [MTW1]    2.17
GMGIGFIDHHAAIRQPT [POP1]    2.94

I have this sequence here, QYYRGLPLYEKNTLLER [SWP82] , and I need its recorded protein stability index.
3.34

Can you check TPDTKNFFHAKKKDPVN [SNF12] next?
2.97

Can you check KPSSPPDVKSLVQLSTM [SIR4] next?
3.26

Can you check TLISENWWHSEFEIPVS [BRR2] next?
1.59

---

- methodDescription: protein stability index of a GFP-peptide fusion (yeast GPS) (PSI 1-4); higher = more stable; sorted into four equal gates, so the index is relative within each strain
- measurementContext: pdr5∆
measure: protein stability index
The response must contain the number and no unit.

EEKEESNLAATKSMVKI [RPN11]    3.41
DNIRYATALQTCAGGRL [SMC2]    3.02
DAVKDFKLGKFNYVAVG [QCR2]    1.52
KRADISKRRITEELSIT [SMC1]    1.73
HYLFNTFTFTAHMGVLL [SWP82]    1.68
DISAAIVHSSDGHLQFL [DLS1]    2.85
AVKRGTCAVGVKGKNCV [PRE6]    1.62
IEIMGILMGFTLKDNIV [RRI1]    2.15
ILNAKYTKETYQSRGID [RPN6]    3.04
NIVNDFTPEEEAAIRRE [SKP1]    2.73

I have this sequence here, VEIEKRILKLGTQLATL [YGR119C/NUP57] , and I need its recorded protein stability index.
1.22

Can you check YLADDIDADSLEDIYTS [RPL5] next?
1.96

Can you check KELKEKEAAESPEEADV [PUP2] next?
3.56

Can you check AGTTDNSFIKANLPWLG [RPN2] next?
1.72

Can you check ANMATVPSTTNVNMTVN [MED6] next?
3.08

---

- methodDescription: protein stability index of a GFP-peptide fusion (yeast GPS) (PSI 1-4); higher = more stable; sorted into four equal gates, so the index is relative within each strain
- measurementContext: ubr1∆
Quick reference: protein stability index of the listed items.
The response must contain the number and no unit.

RSLASFEQTAFSRHAQQ [SIR4]    2.77
QLTSLEKDCSLRAIEKN [YIL149C/MLP2]    3.06
LVTCEGSEEKAFVPKKR [SRP54]    1.61
APIPKQLLQRIPNIPPN [GAL11]    2.54
VFQLPTRLPAFERPAVK [RPC53]    3.01
AELDPSLRTPIAPKITP [SEC65]    3.13

I have this sequence here, PIMQTQMPLNSNGGNNM [SNF2] , and I need its recorded protein stability index.
2.62

Can you check VLRLKPGRKYTTLGKLS [RPL16A] next?
3.03

Can you check QTKSNGTAGGNTFGSSS [YJL041W/NSP1] next?
3.22

Can you check DELELEDAIHIALLTLK [PRE8] next?
3.15

Can you check LEFRWLTSSKSVIVSQF [SIN4] next?
1.42
